- MEASUREMENT_DESCRIPTION: Clearance in Sprague-Dawley rat at 3 mg/kg, po and 0.5 mg/kg, iv
- Type: ADME, organism-based
- STUDY_CONDITIONS: in vivo
METRIC_NAME: clearance (mL/min/kg)
Please state the figure in mL/min/kg; there is no need to write the unit.

For `COCCCc1cc(CCCN2CCOCC2)c(Cl)c(CN(C(=O)[C@H]2CNCC[C@@]23OCc2cc(F)c(F)cc23)C2CC2)c1.Cl.Cl.Cl` , what is its reported clearance?
47

====

- MEASUREMENT_DESCRIPTION: Clearance in Beagle dog at 3 mg/kg, po and 1 mg/kg, iv
- Type: ADME, organism-based, Canis lupus familiaris
- STUDY_CONDITIONS: in vivo
METRIC_NAME: clearance (mL/min/kg)
Please state the figure in mL/min/kg; there is no need to write the unit.

For `COCCCc1cc(CCCN2CCOCC2)c(Cl)c(CN(C(=O)[C@H]2CNCC[C@@]23OCc2cc(F)c(F)cc23)C2CC2)c1.Cl.Cl.Cl` , what is its reported clearance?
73
